Data origin: PubChem BioAssay (NCI)

# Test system: SK-OV-3 ovarian
# method: NCI-60 one-dose screen, 48 h
# conditionSet: 10 µM unless noted
The panel holds about 83,000 compounds, 20% with a hit somewhere; the sample as a whole holds those more often. Active and inactive are the calls of the source. The calls were made as follows: active = growth percent below 10; inactive = the rest.
Mark one answer only. Choices: 1 (yes) = active, 0 (no) = inactive

Look over these answered cases.
>  <compound>
N#CCc1nnc(NC(=O)c2ccc(-n3c(=O)[nH]c4ccccc4c3=O)cc2)s1

>  <classification>
0 (no)

$$$$
>  <compound>
COc1ccc(-n2c(NC(=O)N3CCN(C)CC3)c(C#N)c3ccccc32)cc1

>  <classification>
0 (no)

$$$$
>  <compound>
COc1cc(/C=C/C(=O)c2cnn(-c3cc(=O)[nH]c4ccc(C)cc34)c2C)cc(OC)c1OC

>  <classification>
0 (no)

$$$$
>  <compound>
CC1=NN(C2=NC(=O)C(CC(=O)Nc3ccccc3C(F)(F)F)S2)C(c2ccc(N(C)C)cc2)C1 (stereo not given)

>  <classification>
0 (no)

$$$$
>  <compound>
Cc1ccccc1NC(=O)c1cccc(NC(=O)CCl)c1

>  <classification>
0 (no)

$$$$
>  <compound>
Nc1nc2cc(-c3ccc4ncnc(NCc5ccccc5)c4c3)ccc2o1

>  <classification>
1 (yes)

$$$$
>  <compound>
O=C(N/N=C/c1ccc(B(O)O)s1)c1[nH]c2ccc(Br)cc2c1-c1ccccc1

>  <classification>
1 (yes)

$$$$
>  <compound>
S=C(Nc1ccccc1)Nc1ccc(OCc2nc3ccc(Cl)cc3[nH]2)cc1

>  <classification>
0 (no)

$$$$

Q) Kindly provide the recorded test outcome for the following compound: `CC(C)(C)C(=O)c1c2c(c3ccc4c5ccccc5ccc4n13)C(=O)c1ccccc1C2=O`
A) 0 (no)

Q) Tell me the recorded outcome of this test for COc1ccc2c(c1)C(=O)N(C)C2C1c2c(cc3c(c2OC)OCO3)CCN1C (stereo not given) .
A) 0 (no)
